- Experimental Target: human recombinant D3 receptor (Homo sapiens (Human))
- Sequence (P35462 whole entry): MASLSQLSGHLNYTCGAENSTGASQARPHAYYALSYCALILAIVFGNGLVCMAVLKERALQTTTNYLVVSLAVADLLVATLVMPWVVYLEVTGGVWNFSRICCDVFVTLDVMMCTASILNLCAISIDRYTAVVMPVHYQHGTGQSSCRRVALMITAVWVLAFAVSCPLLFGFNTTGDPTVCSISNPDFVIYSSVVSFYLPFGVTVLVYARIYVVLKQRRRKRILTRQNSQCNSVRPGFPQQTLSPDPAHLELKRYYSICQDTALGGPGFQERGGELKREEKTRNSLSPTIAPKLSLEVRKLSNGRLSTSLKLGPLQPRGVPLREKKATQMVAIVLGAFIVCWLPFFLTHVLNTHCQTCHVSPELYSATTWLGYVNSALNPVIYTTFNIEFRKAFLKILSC
- Experiment Description: Test of binding inhibition for dopamine D3 receptor
- Condition: Jump-In HEK cell membranes, 2 nM [3H]-Methylspiperone, 120 min at 25° C.; read-out: hD3_Ki
- Method: Test Example 1: Test of Binding Inhibition for Dopamine D3 Receptor (Experimental Conditions) Cell membranes: Jump-In HEK cell membranes expressing human recombinant D3 receptor (4 μg/well) […] 225 nL of the solutions of the non-specific ligand or the compounds of the present invention at each concentration (in case of vehicle, final concentration 0.3% DMSO) were added in each well of a 384-well white/clear bottom microplate (3706, Corning). […] The Ki values were calculated from dose-response curves. […]
pKi: −log10 of the molar value.
Listing of recorded pKi by entry.
Outcome Measure: pKi

1) Cn1cc2c(C(=O)N[C@H]3CC[C@H](CCN4CCC(c5nocc5C(F)(F)C5CC5)CC4)CC3)cccc2n1 [Compound I-018]
9.66
2) Cc1ncc(CC(=O)N[C@H]2CC[C@H](CCN3CCC(c4noc(C)c4C(C)(F)F)CC3)CC2)s1 [Compound I-009]
8.72
3) CCc1cc([C@]23C[C@H]2CN(CC[C@H]2CC[C@H](NC(=O)Cc4cnn(C)n4)CC2)C3)no1 [Compound I-053]
9.32
4) Cc1ncc(OCC(=O)N[C@H]2CC[C@H](CCN3C[C@@H]4C[C@]4(c4cc(C(C)(F)F)on4)C3)CC2)cn1 [Compound I-046]
9.70
5) O=C(N[C@H]1CC[C@H](CCN2CCC(c3nocc3C3CC3)CC2)CC1)c1cccc2ncccc12 [Compound I-004]
9.22
6) O=C(N[C@H]1CC[C@H](CCN2CCC(c3nocc3-c3cccc(F)c3)CC2)CC1)c1cccc2ncccc12 [Compound I-003]
10.03
7) CCc1cc([C@]23C[C@H]2CN(CC[C@H]2CC[C@H](NC(=O)COc4cnc(C)nc4)CC2)C3)no1 [Compound I-049]
9.36

---

- Experimental Target: human recombinant D2 receptor (Homo sapiens (Human))
- Sequence (P14416 whole entry): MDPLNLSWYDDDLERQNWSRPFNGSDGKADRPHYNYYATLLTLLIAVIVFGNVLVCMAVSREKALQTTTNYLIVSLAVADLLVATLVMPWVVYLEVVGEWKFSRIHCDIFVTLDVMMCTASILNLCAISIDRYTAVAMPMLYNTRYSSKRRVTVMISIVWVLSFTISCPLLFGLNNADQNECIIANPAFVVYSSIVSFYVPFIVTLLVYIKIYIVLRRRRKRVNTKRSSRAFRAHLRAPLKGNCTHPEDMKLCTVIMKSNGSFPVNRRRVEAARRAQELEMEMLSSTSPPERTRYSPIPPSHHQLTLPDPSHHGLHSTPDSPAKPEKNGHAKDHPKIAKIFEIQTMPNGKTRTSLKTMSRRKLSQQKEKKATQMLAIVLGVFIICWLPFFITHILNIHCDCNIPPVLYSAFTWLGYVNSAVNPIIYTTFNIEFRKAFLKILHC
- Experiment Description: Test of binding inhibition for dopamine D2 receptor
- Condition: Jump-In HEK cell membranes, 1.2 nM [3H]-Methylspiperone, 120 min at 25° C.; read-out: hD2_Ki
pKi: −log10 of the molar value.
Outcome Measure: pKi

1) Cn1cc(OCC(=O)N[C@H]2CC[C@H](CCN3C[C@@H]4C[C@]4(c4cc(C(C)(F)F)on4)C3)CC2)cn1
6.66
2) CCn1c(C(=O)N[C@H]2CC[C@H](CCN3C[C@@H]4C[C@]4(c4cc(C(C)(F)F)on4)C3)CC2)cccc1=O
7.04
3) CCc1cc([C@]23C[C@H]2CN(CC[C@H]2CC[C@H](NC(=O)Cc4cc(C)no4)CC2)C3)no1
6.07
4) Cn1cc2c(C(=O)N[C@H]3CC[C@H](CCN4CCC5CC5(c5cc(C(C)(F)F)on5)C4)CC3)cccc2n1 (some centres unmarked)
5.92
5) Cn1cc2c(C(=O)N[C@H]3CC[C@H](CCN4CCC5(c6nocc6C(C)(F)F)CC5C4)CC3)cccc2n1 (some centres unmarked)
5.77
6) CCC(F)(F)c1conc1C1CCN(CC[C@H]2CC[C@H](NC(=O)c3cccc4nn(C)cc34)CC2)CC1
7.48
7) Cn1cc2c(C(=O)N[C@H]3CC[C@H](CCN4CC=C(c5nocc5C(C)(F)F)CC4)CC3)cccc2n1
6.66
8) Cn1ncc(CC(=O)N[C@H]2CC[C@H](CCN3C[C@@H]4C[C@]4(c4cc(C5CC5)on4)C3)CC2)n1
6.07
9) Cc1ncc(CC(=O)N[C@H]2CC[C@H](CCN3CC4CC4(c4cc(CF)on4)C3)CC2)s1 (some centres unmarked)
5.96
10) Cn1cc2c(C(=O)N[C@H]3CC[C@H](CCN4CCN(c5nocc5C(C)(F)F)CC4)CC3)cccc2n1
7.28
11) CC(=O)c1conc1C1=CCN(CC[C@H]2CC[C@H](NC(=O)c3cccc4nn(C)cc34)CC2)CC1
5.77
12) CCc1cc([C@]23C[C@H]2CN(CC[C@H]2CC[C@H](NC(=O)COc4cnc(C)nc4)CC2)C3)no1
6.08
